Assay: RPL19A-GFP modulators, yeast TOR pathway, confirmation, cell-based, S. cerevisiae, flow cytometry, cherry picks, mother/daughter gates (AID 2270)
Details: S. cerevisiae RPL19A-GFP strain, 3 h, at 10 µM, hits give low values, 100 = same GFP as DMSO wells
parameter_measured: GFP response vs DMSO (%)
Report the value in % with no unit label.

Before answering, review these 3 worked examples.
• O=C(CSc1cccc[n+]1[O-])c1cc2ccccc2o1 = 104
• Cc1cc(C(=O)Nc2nc(-c3ccccn3)cs2)ccc1[N+](=O)[O-] = 104
• Cc1sc(NC(=O)c2cccs2)nc1-c1ccccc1 = 106

The compound listed as CC(Oc1ccc(Cl)cc1Cl)C(=O)NC1=NN(c2ccccc2)C(=O)C1 (stereo not given) shows GFP response vs DMSO equal to 95.8

The compound listed as CCCc1[nH]nc2c1C(c1ccc(OC)c(CSC3=NCCS3)c1)C(C#N)=C(N)O2 (stereo not given) shows GFP response vs DMSO equal to 96.8

These data points were gathered from PubChem BioAssay.
